- assayDetails: S. cerevisiae RM11-1a growth modifiers, primary screen, strain RM11-1a, OD600, basal, 24 h (AID 1177);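 note: cultures grown under basal conditions with no added stressor; test concentration not given here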
- conditionDetails: OD600, 24 h, higher = more signal, called active from +8 up or from −8 down
metricName: z-score
The answer should be written as a number, with no unit following it.

Data request: Reported z-score, compound CCC1=NOC(CCC2CC(OC(=O)NCc3cccc4c3OCO4)CC3(CCCC(COC(=O)NCCc4ccc(Cl)cc4)O3)O2)C1 (configuration not stated) : ____
Data returned: 0.0088

Data request: Reported z-score, compound `CCOC(=O)CCN1C(=O)[C@H]2[C@H]3[C@H](O)[C@H](O)CC(=NNC(=O)OCC)[C@H]3CC[C@H]2C1=O` : ____
Data returned: 0.235

Data request: Reported z-score, compound CCOC(=O)[C@H](Cc1ccccc1)NC(=O)CCC1CC(OC(=O)NCc2ccc3c(c2)OCO3)CC2(CCCC(COC(=O)NCCOC)O2)O1 (some centres not stated) : ____
Data returned: 0.0059

Data request: Reported z-score, compound COC(=O)[C@H](C)NC(=O)CCC1CC(OC(=O)NCCc2ccc(F)cc2)CC2(CCCC(COC(=O)NCc3ccccc3)O2)O1 (some centres not stated) : ____
Data returned: 1.02

Data request: Reported z-score, compound `CCOC(=O)CCN1C(=O)[C@H]2[C@H]3[C@H](O)[C@H](O)CC(=NOCC=C(C)CCC=C(C)C)[C@@H]3CC[C@H]2C1=O` : ____
Data returned: -0.839

Data request: Reported z-score, compound CCCCOC(OCCCC)C(O)CSc1ccc2ccccc2c1 (configuration not stated) : ____
Data returned: 0.363

Data request: Reported z-score, compound `C[C@@H](c1ccccc1)N1C(=O)[C@H]2[C@H]3[C@H](O)[C@H](O)CC(=NOCc4ccccc4)[C@@H]3CC[C@H]2C1=O` : ____
Data returned: -0.183

###

- assayDetails: small-molecule binders of probe aInhba, primary screen, biochemical, small-molecule microarray, 635/667 nm fluorescence (AID 1148);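 note: score merges 667nm spot fluorescence with signal-to-noise for antibody binding to printed compounds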
- conditionDetails: higher = more signal
metricName: composite z-score
The answer should be written as a number, with no unit following it.

Data request: Reported composite z-score, compound `Cc1ccc(C(C)C)n1C(=O)OC(C)(C)C` : ____
Data returned: -0.176

Data request: Reported composite z-score, compound `CCN1C(=O)[C@H]2[C@H]3[C@H](O)[C@H](O)CC(=NOC[C@@H](O)[C@H]4O[C@@H]5OC(C)(C)O[C@@H]5[C@H]4O)[C@@H]3CC[C@H]2C1=O` : ____
Data returned: -0.246

Data request: Reported composite z-score, compound `COc1ccc(COC(=O)NN=C2C[C@@H](O)[C@@H](O)[C@@H]3[C@@H]4C(=O)N([C@@H](C)c5ccccc5)C(=O)[C@@H]4CC[C@@H]23)cc1` : ____
Data returned: 0.0111

Data request: Reported composite z-score, compound `C[C@@H]1CC[C@H]2C(=O)O[C@@H](CN=[N+]=[N-])CN2[C@H]1c1ccc(Br)cc1` : ____
Data returned: -0.179

Data request: Reported composite z-score, compound `COC(=O)[C@@H]1CC[C@H](C)[C@@H](c2ccc(C)cc2)N1C(=O)c1ccc(C=NOC[C@H]2O[C@H](c3ccccc3)C=C[C@@H]2Oc2ccc(OC)cc2)cc1` : ____
Data returned: 0.0018

Data request: Reported composite z-score, compound `CC(=O)OC[C@H]1O[C@@H](ON=C2[C@H]3CCn4c(=O)n(-c5ccccc5)c(=O)n4[C@H]3[C@H](O)[C@@H]3O[C@H]23)[C@H](OC(C)=O)[C@@H](OC(C)=O)[C@@H]1OC(C)=O` : ____
Data returned: 0.0282

Data request: Reported composite z-score, compound `CC(=O)OC[C@H]1O[C@H](CCON=C(C)CCN2CCCc3nc(C)c(C)cc32)C=C[C@@H]1OC(C)=O` : ____
Data returned: 0.0973
